System: DU-145 prostate
assay-procedure: NCI tumour cell line growth inhibition, 48 h
outcome-measure: TGI

Reported TGI, compound O=S(=O)(O)c1ccc2c(N=Nc3ccc(F)cc3)c(O)c(S(=O)(=O)O)cc2c1 : ____
> 100 µM

Reported TGI, compound FC(F)(F)c1ccc(-c2cnc(Cl)nc2NCc2cc(C(F)(F)F)cc(C(F)(F)F)c2)cc1 : ____
> 100 µM

Reported TGI, compound Cc1n[nH]c(=O)n1/N=C\CC/C=N\n1c(C)n[nH]c1=O : ____
> 100 µM

Reported TGI, compound C/C(CC1SCCCS1)=C(/C)CC1SCCCS1 : ____
> 100 µM

Reported TGI, compound COc1ccc(C2(O)c3ccccc3C(=O)N(C)C2(O)c2ccc(OC)cc2)cc1 (stereo not given) : ____
> 100 µM

Reported TGI, compound CCCCNC(=O)NS(=O)(=O)c1ccc(N2N=C(c3cc(C)ccc3C)CC2c2cc(OC)c(OC)c(OC)c2)cc1 (stereo not given) : ____
11.1 µM

Reported TGI, compound OCC1OC(n2cnc3c(=S)nc[nH]c32)C(O)C1O (stereo not given) : ____
> 2500 µM

Reported TGI, compound COC(=O)C1=C(C)NC(C)=C(C(=O)OC)C1c1cccc(NO)c1 : ____
> 100 µM

Reported TGI, compound N=C(N)c1ccc(COc2ccccc2OCc2ccc(C(=N)N)cc2)cc1 : ____
45.8 µM

Reported TGI, compound O=c1[nH]c(-c2ccccc2)nc2c1sc1nc3ccccc3n12 : ____
> 100 µM
